system: CAL-54 (Kidney Carcinoma); test: Bliss excess, mean over the matrix (fraction); higher = more synergy;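 note: after 72 h of two-drug dosing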
result_type: Bliss excess
In your answer, state the number alone without any accompanying words.

For Cc1c2c(nn1C)CSCc1cc(n(C)n1)CSc1cc(c3ccccc3c1)OCCCc1c(C(=O)O)n(C)c3c-2c(Cl)ccc13 [AZD5991] + CCN(CCO)CCCOc1ccc2c(Nc3cc(CC(=O)Nc4cccc(F)c4)[nH]n3)ncnc2c1 [AZD2811] (first compound max 1 µM, 7x7, partner max 1 µM) , write its Bliss excess.
-0.0018

Annotate the compound CN(CCO)CC[C@H](CSc1ccccc1)Nc1ccc(S(=O)(=O)NC(=O)c2ccc(N3CCC([C@@H](O)c4ccccc4-c4ccc(Cl)cc4)CC3)cc2)cc1S(=O)(=O)C(F)(F)F [AZD4320] + CC(=O)O[C@H]1C(=O)[C@@]2(C)[C@H]([C@H](OC(=O)c3ccccc3)[C@]3(O)C[C@H](OC(=O)[C@H](O)[C@@H](NC(=O)c4ccccc4)c4ccccc4)C(C)=C1C3(C)C)[C@]1(OC(C)=O)CO[C@@H]1C[C@@H]2O [Paclitaxel] (first compound max 1 µM, 7x7, partner max 3 µM) with its measured Bliss excess.
-0.0202

Please list Bliss excess recorded for the compound Cc1c2c(nn1C)CSCc1cc(n(C)n1)CSc1cc(c3ccccc3c1)OCCCc1c(C(=O)O)n(C)c3c-2c(Cl)ccc13 [AZD5991] + CC(=O)O[C@H]1C(=O)[C@@]2(C)[C@H]([C@H](OC(=O)c3ccccc3)[C@]3(O)C[C@H](OC(=O)[C@H](O)[C@@H](NC(=O)c4ccccc4)c4ccccc4)C(C)=C1C3(C)C)[C@]1(OC(C)=O)CO[C@@H]1C[C@@H]2O [Paclitaxel] (first compound max 1 µM, 7x7, partner max 3 µM)
-0.0639

Name the recorded Bliss excess of the compound listed here: Cc1cc2ncnn2cc1Nc1ncc2c(n1)n(C1CCOCC1)c(=O)n2C [AZD7648] + CCN(CCO)CCCOc1ccc2c(Nc3cc(CC(=O)Nc4cccc(F)c4)[nH]n3)ncnc2c1 [AZD2811] (first compound max 10 µM, 7x7, partner max 1 µM)
0.0156

Specify Bliss excess for CN(C)CCCOc1ccc(-c2ccc3ncc4c(c3c2)n(C2CCOCC2)c(=O)n4C)cn1 [AZD0156] + O=C(c1cc(Cc2n[nH]c(=O)c3ccccc23)ccc1F)N1CCN(C(=O)C2CC2)CC1 [Olaparib] (first compound max 3 µM, partner max 3 µM) and stop.
0.034

Answer with reported Bliss excess of CN(CCO)CC[C@H](CSc1ccccc1)Nc1ccc(S(=O)(=O)NC(=O)c2ccc(N3CCC([C@@H](O)c4ccccc4-c4ccc(Cl)cc4)CC3)cc2)cc1S(=O)(=O)C(F)(F)F [AZD4320] + CN(C)CCCOc1ccc(-c2ccc3ncc4c(c3c2)n(C2CCOCC2)c(=O)n4C)cn1 [AZD0156] (first compound max 1 µM, 7x7, partner max 1 µM)
-0.0224

Give the measured Bliss excess for COc1nnc2ccc(N3CCC(c4ccc(OCCN5CCN(C)C(=O)[C@H]5C)cc4)CC3)nn12 [AZD5153] + Cn1cnc2c(F)c(Nc3ccc(Br)cc3Cl)c(C(=O)NOCCO)cc21 [Selumetinib] (first compound max 1 µM, 7x7, partner max 10 µM)
-0.0165
